Every entry's value here was drawn from the supplement of paper PMC10567573.

B1: INTS4 (parent)
chain: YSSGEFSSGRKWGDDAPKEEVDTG

Variants of: B1
ASSAY_METHOD_TEXT: protein stability index of a GFP-peptide fusion (GPS, HEK-293T) (PSI 1-6); higher = more stable;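 note: lentivirally expressed fusions sorted by FACS into six bins by GFP to DsRed ratio, PSI derived from sequencing read proportions per bin multiplied by bin number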
CONDITION_INFO: c terminus: a fixed tail appended
MEASURED_PARAMETER: protein stability index
Answers are plain numbers.

Study these solved cases before continuing.
>  <VARIANT_ID>
Y1I

>  <protein stability index>
5.55

$$$$
>  <VARIANT_ID>
D15G

>  <protein stability index>
2.07

$$$$
>  <VARIANT_ID>
E5Y

>  <protein stability index>
1.04

$$$$

Each variant below has a reported value. Please supply its protein stability index.
1. S8Q
2. G9A

Marked response:
1: 1.89; 2: 1.91
